Where do the numbers come from? From PubChem BioAssay (NCI).

# System: NCI/ADR-RES ovarian
# assay info: NCI tumour cell line growth inhibition, 48 h
property label: TGI

Req: Find the measured TGI of O=C(CCN1CCCCC1)N1CCc2c([nH]c3ccccc23)C1c1cccnc1 (centres undefined) and report it.
Resp: > 100 µM

Req: Retrieve TGI measured for CC(=O)NNc1nc(C)c(C(/C=C/c2ccccc2O)=N/N=C(N)N)s1 and print it.
Resp: > 100 µM

Req: Answer with the recorded TGI of C=CCC(N[C@@H](CO)c1ccccc1)c1cn(C(=O)OCC)c2ccccc12 (some centres undefined) only.
Resp: 55.5 µM

Req: Return TGI for the following molecule: CC(=O)N1N=C(c2ccc(Nc3nc(Nc4ccc(F)cc4)nc(Nc4ccc(F)cc4)n3)cc2)CC1c1ccc(N(C)C)cc1 (centres undefined)
Resp: 33.3 µM

Req: State its TGI for this molecule: Cc1c(N=C/C=C/c2ccccc2)c(=O)n(-c2ccccc2)n1C
Resp: 79.6 µM

Req: Identify measured TGI associated with CC(=O)OCC1OC(n2c3c(c(-c4ccc(Cl)cc4)c(C#N)c2=S)CCCC3)C(OC(C)=O)C(OC(C)=O)C1OC(C)=O (centres undefined)
Resp: > 100 µM

Req: Please give the documented TGI of Cc1cc(=O)oc2cc(OCC(O)COC(C)C)ccc12 (centres undefined)
Resp: > 100 µM

Req: Dear colleague, please send me the reported TGI for CC(=O)OCC(=O)OC[C@H](OCc1ccccc1)[C@@H]1[C@H](OC(C)=O)C(=O)N1Cc1ccccc1 when you can.
Resp: > 100 µM

Req: Entry Cc1cc(C)c(-c2c(N)cc(Br)cc2Br)c(N)c1 needs its TGI filled in; supply it.
Resp: 9.11 µM

Req: For the molecule Clc1ccccc1-c1nnc2c(Cc3ccccc3)nc3ccccc3n12 , report TGI.
Resp: > 100 µM

Req: Return TGI for the following molecule: CSc1nc2c(c(=O)n1C)N=C(c1ccc([N+](=O)[O-])cc1)CC(c1ccccc1)N2 (centres undefined)
Resp: > 100 µM

Req: Name the recorded TGI of the molecule listed here: CCN(CC)CCCC(C)N/C(=C1\C(=O)NC(=O)\C1=C(/NC(C)CCCN(CC)CC)c1cccc(OC)c1)c1cccc(OC)c1 (centres undefined)
Resp: 5.04 µM

Req: Using known records, supply TGI for COc1cc2c(c(OC)c1OC)-c1ccc(SC)c(=O)cc1[C@@H](O)CC2
Resp: 0.302 µM

Req: Please give measured TGI of the following entry: O=C(c1ccc(Cl)cc1)C(O)c1ccc(Cl)cc1 (centres undefined)
Resp: > 100 µM

Req: Supply measured TGI of CC(=O)NCC1OC2COC(c3ccccc3)OC2C(NC(=O)c2ccccc2)C1OC(=O)c1ccccc1 (centres undefined) in your reply.
Resp: > 100 µM

Req: Name the recorded TGI of the item O=C1O[C@H]2[C@H](OC(=O)c3cc(O)c(O)c(O)c3)[C@@H](OC(=O)c3cc(O)c(O)c4c3[C@@H]3C1=CC(=O)C(O)(O)C3(O)O4)[C@H](OC(=O)c1cc(O)c(O)c(O)c1)O[C@@H]2COC(=O)c1cc(O)c(O)c(O)c1 (some centres undefined) in your answer.
Resp: > 100 µM

Req: Identify measured TGI corresponding to c1ccc(CNCCN(CCNCc2ccccn2)Cc2ccc3ccccc3c2)nc1
Resp: 6.96 µM

Req: For the molecule CN1CCN(Cc2ccc(NC(=O)c3cncc(C#Cc4cnc(N)c5cccnc45)c3)cc2C(F)(F)F)CC1 , give its measured TGI value.
Resp: > 50 µM

Req: Provide TGI value for the following molecule: O=C1Nc2nccnc2C(=O)N2CCC[C@@H]12
Resp: > 100 µM

Req: Give me measured TGI, please, for this molecule: CCCSc1ccc2[nH]c(N3C(=O)/C(=C/c4ccc(SC)cc4)N=C3c3ccccc3)cc2c1
Resp: > 50 µM

Req: Return TGI for the following molecule: COC(=O)c1cc(NC(=O)Cc2c[nH]c3ccccc23)cn1C
Resp: > 100 µM

Req: Identify measured TGI associated with CC[C@@H](C)/C=C(C)/C=C/C(=O)c1c(O)c(-c2ccc(O)cc2)cn(O)c1=O
Resp: 10.7 µM

Req: Assign TGI to the following record: O=C(/C=C/c1ccccc1)Nc1ccccc1SCCCCl
Resp: 35.1 µM

Req: Indicate its recorded TGI; the molecule in question is Clc1ccc(CCN[C@H]2CCCC[C@H]2N2CCCC2)cc1Cl
Resp: > 100 µM

Req: Give reported TGI value for COc1ccc2c(c1)CCCN1CCc3ccccc3C21 (centres undefined)
Resp: 49.5 µM

Req: Please list TGI recorded for the molecule CC1=CC(C)(C)NN1C1=NS(=O)(=O)c2ccccc2N1C
Resp: > 100 µM

Req: Give the reported value of TGI for this record: COc1cc(C2(c3ncc[nH]3)SSSCC2O)ccc1O (centres undefined)
Resp: > 62.8 µM

Req: Read the entry Cc1cn(Cc2ccc(C34CC5CC(CC(C5)C3)C4)c(O)c2)c(=O)[nH]c1=O and write its reported TGI.
Resp: 27.2 µM

Req: Query TGI for COc1ccc(OC)c2c1C=CC(Br)=CC2
Resp: > 1 µM

Req: Write down TGI measured for item CN(C)N1C(=O)S/C(=C\c2ccc([N+](=O)[O-])cc2)C1=O
Resp: > 100 µM

Req: Please give measured TGI of the following entry: CC1=C(O)c2ccccc2C(=O)C1=O
Resp: > 100 µM

Req: Give recorded TGI. Cc1cc2nc3ccccc3n2c2nc(N)ccc12
Resp: > 100 µM

Req: Read the entry Cc1cc(Nc2nc(N[C@@H](C)c3ncc(F)cn3)ncc2Cl)n[nH]1 and write its reported TGI.
Resp: > 100 µM

Req: Give recorded TGI. CCCCCCCCCOCC(COP(=O)([O-])OCC[N+](C)(C)C)OC (centres undefined)
Resp: > 100 µM

Req: Provide only the value of recorded TGI for CC1=CC[C@@]2(C)CC[C@](O)(C(C)C)C2C(OC(=O)c2ccccc2)C1 (some centres undefined)
Resp: 41.5 µM

Req: Please supply the value of reported TGI for the item CC(C)C1NC(=O)CC(c2ccccc2)N(N=O)C1c1ccccc1 (centres undefined)
Resp: > 100 µM

Req: Item COc1ccc(-c2c3c(n(C4OC(CO)C(O)C(O)C4O)c(=S)c2C#N)CCCC3)cc1 (centres undefined) : provide TGI
Resp: > 100 µM

Req: Answer with reported TGI of COc1c(C(=O)NCCN(CCNC(=O)c2cccc(-c3cccc(C(=O)N(C)C)c3OC)c2OC)CCNC(=O)c2cccc(-c3cccc(C(=O)N(C)C)c3OC)c2OC)cccc1-c1cccc(C(=O)N(C)C)c1OC
Resp: > 100 µM

Req: Indicate its recorded TGI; the molecule in question is COc1cccc(/C=C2\S/C(=N/Nc3nc(C)c(C)s3)NC2=O)c1O
Resp: > 100 µM
